molecular target: UniProt P0DMS8; settings: ratio Ki(A1)/Ki(A3), agonist radioligands
Sequence (P0DMS8 whole entry): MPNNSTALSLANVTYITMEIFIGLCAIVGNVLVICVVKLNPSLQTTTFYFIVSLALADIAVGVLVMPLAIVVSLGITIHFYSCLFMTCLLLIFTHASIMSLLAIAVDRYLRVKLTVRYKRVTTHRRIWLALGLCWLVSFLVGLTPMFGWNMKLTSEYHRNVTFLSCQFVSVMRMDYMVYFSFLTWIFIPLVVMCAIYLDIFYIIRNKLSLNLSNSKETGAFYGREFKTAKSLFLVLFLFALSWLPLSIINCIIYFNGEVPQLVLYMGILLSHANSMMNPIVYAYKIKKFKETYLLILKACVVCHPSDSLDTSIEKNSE
outcomeMeasure: A1/A3

Check out these entries, answers already filled in.
• CCNC(=O)[C@H]1O[C@@H](n2cnc3c(NC(=O)Nc4ccc(S(=O)(=O)NC56CC7CC(CC(C7)C5)C6)cc4)ncnc32)[C@H](O)[C@@H]1O [Compound 93] = 7.5
• CCNC(=O)[C@H]1O[C@@H](n2cnc3c(NC(=O)Nc4ccc(S(=O)(=O)NC5C=CCC5)cc4)ncnc32)[C@H](O)[C@@H]1O (some centres unmarked) [Compound 101] = 13.16
• CCCCCNS(=O)(=O)c1ccc(NC(=O)Nc2ncnc3c2ncn3[C@@H]2O[C@H](C(=O)NCC)[C@@H](O)[C@H]2O)cc1 [Compound 87] = 5.56

[I] C=CCN(CC=C)S(=O)(=O)c1ccc(NC(=O)Nc2ncnc3c2ncn3[C@@H]2O[C@H](C(=O)NCC)[C@@H](O)[C@H]2O)cc1 [Compound 99]
[II] CCNC(=O)[C@H]1O[C@@H](n2cnc3c(NC(=O)Nc4ccc(S(=O)(=O)NCC)cc4)ncnc32)[C@H](O)[C@@H]1O [Compound 85]
Task: Larger number for A1/A3: I , or II ? Identify your pick by its label.
Result: I
(I: 38, II: 10.86)

----------
target: human A2A adenosine receptors (Homo sapiens, UniProt P29274); construct: expressed in transfected cells; host or cells: CHO cells; test: Displacement of [^3H]CGS21680 binding, human A2A adenosine receptors in CHO cells (agonist radioligand)
Sequence (P29274 whole entry): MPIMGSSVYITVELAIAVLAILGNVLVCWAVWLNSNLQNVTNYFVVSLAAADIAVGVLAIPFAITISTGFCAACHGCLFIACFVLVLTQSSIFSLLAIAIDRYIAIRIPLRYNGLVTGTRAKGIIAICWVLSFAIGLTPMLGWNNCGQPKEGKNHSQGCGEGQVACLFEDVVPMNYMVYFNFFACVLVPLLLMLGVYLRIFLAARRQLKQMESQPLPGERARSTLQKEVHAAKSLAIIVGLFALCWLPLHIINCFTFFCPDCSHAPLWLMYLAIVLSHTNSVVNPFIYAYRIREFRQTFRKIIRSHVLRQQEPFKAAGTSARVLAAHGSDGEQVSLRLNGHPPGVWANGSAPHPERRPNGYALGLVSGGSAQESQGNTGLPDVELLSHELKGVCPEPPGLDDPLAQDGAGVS
outcomeMeasure: Ki

Task: Could you share which Ki value was measured for CCNC(=O)[C@H]1O[C@@H](n2cnc3c(NC(=O)Nc4ccc(S(=O)(=O)N(CCCl)CCCl)cc4)ncnc32)[C@H](O)[C@@H]1O [Compound 91] ?
Result: > 1 µM

----------
target: human A2A receptors (Homo sapiens, UniProt P29274); construct: expressed in transfected cells; host or cells: CHO cells; experiment: [^3H] SCH58261 binding to human A2A receptors expressed in CHO cells (antagonist radioligand); details: human A2A, CHO cells, antagonist radioligand; read-out: [^3H] SCH58261 binding to human A2A receptors expressed in CHO cells Ki
Sequence (P29274 whole entry): as above
Each record here notes measured Ki.

- CCCCCNS(=O)(=O)c1ccc(NC(=O)Nc2ncnc3c2ncn3[C@@H]2O[C@H](C(=O)NCC)[C@@H](O)[C@H]2O)cc1: > 1000 nM
- CCNC(=O)[C@H]1O[C@@H](n2cnc3c(NC(=O)Nc4ccc(S(=O)(=O)Nc5ccc(OC)cc5)cc4)ncnc32)[C@H](O)[C@@H]1O: > 1000 nM

Now for another entry.
Task: Any idea what Ki came out for CCNC(=O)[C@H]1O[C@@H](n2cnc3c(NC(=O)Nc4ccc(S(=O)(=O)N5CCCCC5)cc4)ncnc32)[C@H](O)[C@@H]1O on human A2A receptors (Homo sapiens, UniProt P29274)?
Result: > 1000 nM

----------
Biological target: human A1 adenosine receptors (Homo sapiens, UniProt P30542)
Sequence (P30542 1-326): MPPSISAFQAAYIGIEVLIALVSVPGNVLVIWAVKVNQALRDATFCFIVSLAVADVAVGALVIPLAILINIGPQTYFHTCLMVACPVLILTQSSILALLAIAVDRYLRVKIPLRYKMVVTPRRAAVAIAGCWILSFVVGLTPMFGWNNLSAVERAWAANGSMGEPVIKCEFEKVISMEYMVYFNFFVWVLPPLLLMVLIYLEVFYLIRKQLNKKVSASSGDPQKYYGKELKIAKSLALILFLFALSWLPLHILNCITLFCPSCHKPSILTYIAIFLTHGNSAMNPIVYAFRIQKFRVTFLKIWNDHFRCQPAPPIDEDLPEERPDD
Assay: Displacement of [^3H]CHA binding, human A1 adenosine receptors in CHO cells (agonist radioligand)
outcomeMeasure: Ki (nM)

[A] CCNC(=O)[C@H]1O[C@@H](n2cnc3c(NC(=O)Nc4ccc(S(=O)(=O)N5CCOCC5)cc4)ncnc32)C(O)C1O (stereo partly drawn)
[B] CCNC(=O)[C@H]1O[C@@H](n2cnc3c(NC(=O)Nc4ccc(S(=O)(=O)NC5CC5)cc4)ncnc32)[C@H](O)[C@@H]1O
Task: Larger number for Ki: A , or B ? Identify your pick by its label.
Result: A
(A: 725 nM, B: 290 nM)
